# assayed_system: CDK1/Cyclin B1 (Homo sapiens (Human), UniProt P06493)
# Sequence (P06493 whole entry): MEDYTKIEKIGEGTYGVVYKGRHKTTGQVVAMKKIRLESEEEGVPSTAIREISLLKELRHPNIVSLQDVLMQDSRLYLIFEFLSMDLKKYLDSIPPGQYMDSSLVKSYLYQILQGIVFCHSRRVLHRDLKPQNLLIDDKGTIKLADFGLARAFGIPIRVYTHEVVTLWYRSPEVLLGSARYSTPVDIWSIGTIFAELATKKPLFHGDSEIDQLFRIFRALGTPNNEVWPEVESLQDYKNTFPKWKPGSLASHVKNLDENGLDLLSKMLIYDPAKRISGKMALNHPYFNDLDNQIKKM
# Sequence (P14635 whole entry partner): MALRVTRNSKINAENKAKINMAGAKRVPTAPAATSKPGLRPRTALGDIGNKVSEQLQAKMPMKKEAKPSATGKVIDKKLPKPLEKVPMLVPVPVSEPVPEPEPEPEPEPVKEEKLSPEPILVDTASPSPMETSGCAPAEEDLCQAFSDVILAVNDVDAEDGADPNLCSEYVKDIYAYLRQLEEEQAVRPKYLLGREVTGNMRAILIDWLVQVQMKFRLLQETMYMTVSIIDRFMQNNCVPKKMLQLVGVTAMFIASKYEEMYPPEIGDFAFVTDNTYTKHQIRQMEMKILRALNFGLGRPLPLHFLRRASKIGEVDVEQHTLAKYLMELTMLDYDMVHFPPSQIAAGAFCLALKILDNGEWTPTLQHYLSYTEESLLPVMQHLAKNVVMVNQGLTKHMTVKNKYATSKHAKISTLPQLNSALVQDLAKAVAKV
# test_details: CDK1/Cyclin B1 ADP-Glo Kinase Assay
# stated_conditions: 80 uM ATP
Provide the reported IC50 of each item.

stdin: Respond only with IC50 recorded for CS(=O)(=O)N1CCC(Nc2ncc3cccc(C4CC5(CNCC5(F)F)C4)c3n2)CC1 (centres unmarked) [Example 122]
stdout: < 200 nM

stdin: Consider the compound COCCN1CCC2(C1)CN(c1cccc3cnc(NC4CCN(S(C)(=O)=O)CC4)nc13)C2 [Example 39] and give its recorded IC50.
stdout: 500 to 2000 nM

stdin: For the compound CN1CC2(CC(c3cc(C(F)F)cc4cnc(NC5CCN(S(C)(=O)=O)CC5)nc34)C2)C1 [Example 67] , give its measured IC50 value.
stdout: < 200 nM

stdin: Return IC50 for the following compound: CS(=O)(=O)N1CCC(Nc2ncc3cccc(N4CCC5(CNC5)C4)c3n2)CC1 [Example 15]
stdout: 200 to 500 nM

stdin: Identify measured IC50 corresponding to CN1CC2(CCN(c3cccc4cnc(Nc5ccc(N6CC7(COC7)C6)cn5)nc34)C2)C1 [Example 42]
stdout: > 2000 nM

stdin: Read off the recorded IC50 for CS(=O)(=O)N1CCC(Nc2ncc3cccc(N4CC5(CNCC5(F)F)C4)c3n2)CC1 [Example 111]
stdout: 500 to 2000 nM

stdin: Answer with the recorded IC50 of O=S(=O)(CC1CC1)N1CCC(Nc2ncc3cc(C(F)F)cc(N4CC5(CCNC5)C4)c3n2)CC1 [Example 85] only.
stdout: < 200 nM

stdin: Entry CS(=O)(=O)N1CCC(Nc2ncc3cc(C(F)F)cc(C4CC5(CCNC5)C4)c3n2)CC1 (centres unmarked) [Example 70] needs its IC50 filled in; supply it.
stdout: < 200 nM

stdin: Identify the reported IC50 for the following entry. CS(=O)(=O)N1CCC(Nc2ncc3cc(C(F)F)cc(C4CC5(CCN(CC(F)F)C5)C4)c3n2)CC1 (centres unmarked) [Example 100]
stdout: < 200 nM

stdin: Using known records, supply IC50 for CC(=O)N1CCC2(CCN(c3cc(C(F)F)cc4cnc(Nc5cnn(C(C)C)c5)nc34)C2)C1 (centres unmarked) [Example 52]
stdout: 500 to 2000 nM

stdin: Kindly indicate its recorded IC50. Item: CN1CC2(CCN(c3cc(C(F)F)cc4cnc(NC5CCN(c6ncc(C7CC7)cn6)CC5)nc34)C2)C1 [Example 64]
stdout: > 2000 nM

stdin: Supply recorded IC50 for O=S(=O)(C1CC1)N1CCC(Nc2ncc3cc(C(F)F)cc(N4CC5(CNCC5F)C4)c3n2)CC1 (centres unmarked) [Example 104] here.
stdout: < 200 nM

stdin: Recall and state the measured IC50 for CS(=O)(=O)N1CCC(Nc2ncc3cccc(N4CCN(C5COC5)CC4)c3n2)CC1 [Example 11] .
stdout: > 2000 nM

stdin: Report measured IC50; entry is CS(=O)(=O)N1CCC(Nc2ncc3cccc(N4CCC5(CCN(S(C)(=O)=O)C5)C4)c3n2)CC1 (centres unmarked) [Example 23]
stdout: > 2000 nM

stdin: Consider the compound CN1CC2(CC(n3cc(Nc4ncc5cc(C(F)F)cc(N6CCC(C#N)(C7CC7)C6)c5n4)cn3)C2)C1 (centres unmarked) [Example 60] and give its recorded IC50.
stdout: 500 to 2000 nM

stdin: Indicate the recorded IC50 value for this compound: CS(=O)(=O)N1CCC(Nc2ncc3cccc(N4CCC5(C4)CS(=O)(=O)C5)c3n2)CC1 [Example 4]
stdout: 500 to 2000 nM

stdin: Look up and state reported IC50 for Cn1ncc2cc(Nc3ncc4cc(C(F)F)cc(N5CC6(CCNC6)C5)c4n3)ccc21 [Example 75]
stdout: < 200 nM

stdin: Please give the documented IC50 of CS(=O)(=O)N1CCC(Nc2ncc3cccc(N4CCN(CC5CC5)CC4)c3n2)CC1 [Example 17]
stdout: > 2000 nM

stdin: Please look at this compound and report its IC50: CC(=O)N1CCC2(CCN(c3cccc4cnc(Nc5ccc(N6CC7(COC7)C6)cn5)nc34)C2)C1 (centres unmarked) [Example 41]
stdout: > 2000 nM

stdin: Provide measured IC50 value, entry: CS(=O)(=O)N1CCC(Nc2ncc3cc(C(F)F)cc(N4CC5(C4)CN(C4CC4)C5)c3n2)CC1 [Example 69]
stdout: 200 to 500 nM

stdin: Return reported IC50. Input compound: CS(=O)(=O)N1CCC(Nc2ncc3cc(C(F)F)cc(C4CC5(CCN(C6COC6)C5)C4)c3n2)CC1 (centres unmarked) [Example 102]
stdout: < 200 nM

stdin: Give IC50 for the following compound: CS(=O)(=O)N1CCC(Nc2ncc3cc(C(F)F)cc(C4CC(O)(C(F)F)C4)c3n2)CC1 (centres unmarked) [Example 113]
stdout: < 200 nM

stdin: Look up and state reported IC50 for CS(=O)(=O)N1CCC(Nc2ncc3cccc(N4CCN(C5CC5)CC4)c3n2)CC1 [Example 13]
stdout: > 2000 nM

stdin: Using the record for CN1CC2(CCC1=O)CCN(c1cccc3cnc(NC4CCN(S(C)(=O)=O)CC4)nc13)C2 (centres unmarked) [Example 55] , state its measured IC50.
stdout: > 2000 nM

stdin: Given CS(=O)(=O)N1CCC(Nc2ncc3cccc(N4CCC(C#N)(C5CC5)C4)c3n2)CC1 (centres unmarked) [Example 27] , respond with its IC50.
stdout: 500 to 2000 nM

stdin: Using the record for COC1CC2(C1)CC(c1cccc3cnc(NC4CCN(S(C)(=O)=O)CC4)nc13)C2 (centres unmarked) [Example 107] , state its measured IC50.
stdout: 500 to 2000 nM

stdin: Give the measured IC50 for CCN(CC)C1CCN(c2cccc3cnc(NC4CCN(S(C)(=O)=O)CC4)nc23)CC1 [Example 20]
stdout: > 2000 nM

stdin: Supply recorded IC50 for CC1(S(=O)(=O)N2CCC(Nc3ncc4cc(C(F)F)cc(N5CC6(CCNC6)C5)c4n3)CC2)CC1 [Example 87] here.
stdout: < 200 nM

stdin: Answer with the recorded IC50 for the compound listed here: FC(F)c1cc(N2CCC3(C2)CC3(F)F)c2nc(NC3[C@H]4CNC[C@@H]34)ncc2c1 (some centres unmarked) [Example 53]
stdout: > 2000 nM

meta.source: patent US20240092761A1
